Reference for the values: patent US20090317363A1

Form field: log10(anti-HIV potency (IC50, nM) by cell fusion assay) (one value per entry).
Target: CCR5 (UniProt P51681)
Assay: cell-based or functional assay
measured parameter: log10(anti-HIV potency (IC50, nM) by cell fusion assay) (log10 of the value in nM)

binder	endpoint result
RANTES derivative: signature sequence SEQ ID NO: 10 fused to positions 10-68 of native RANTES (SEQ ID NO: 1) (ligand) QGPPLMWLQSCCFAYIARPLPRAHIKEYFYTSGKCSNPAVVFVTRKNRQVCANPEKKWVREYINSLEMS	-1.52
RANTES derivative: signature sequence SEQ ID NO: 5 fused to positions 10-68 of native RANTES (SEQ ID NO: 1) (ligand) QGPPLMWTQSCCFAYIARPLPRAHIKEYFYTSGKCSNPAVVFVTRKNRQVCANPEKKWVREYINSLEMS	-1.70
RANTES derivative: signature sequence SEQ ID NO: 55 fused to positions 10-68 of native RANTES (SEQ ID NO: 1) (ligand) QGPPGSWSQVCCFAYIARPLPRAHIKEYFYTSGKCSNPAVVFVTRKNRQVCANPEKKWVREYINSLEMS	-1.15
RANTES derivative: signature sequence SEQ ID NO: 8 fused to positions 10-68 of native RANTES (SEQ ID NO: 1) (ligand) QGPPLMWMQSCCFAYIARPLPRAHIKEYFYTSGKCSNPAVVFVTRKNRQVCANPEKKWVREYINSLEMS	-1.52
RANTES derivative: signature sequence SEQ ID NO: 57 fused to positions 10-68 of native RANTES (SEQ ID NO: 1) (ligand) QGPPLMGLSVCCFAYIARPLPRAHIKEYFYTSGKCSNPAVVFVTRKNRQVCANPEKKWVREYINSLEMS	-0.80
RANTES derivative: signature sequence SEQ ID NO: 37 fused to positions 10-68 of native RANTES (SEQ ID NO: 1) (ligand) QGPPLMGTQSCCFAYIARPLPRAHIKEYFYTSGKCSNPAVVFVTRKNRQVCANPEKKWVREYINSLEMS	-1.05
RANTES derivative: signature sequence SEQ ID NO: 60 fused to positions 10-68 of native RANTES (SEQ ID NO: 1) (ligand) QGPPLQWMQACCFAYIARPLPRAHIKEYFYTSGKCSNPAVVFVTRKNRQVCANPEKKWVREYINSLEMS	-1.70
RANTES derivative: signature sequence SEQ ID NO: 4 fused to positions 10-68 of native RANTES (SEQ ID NO: 1) (ligand) QGPPLMWLQVCCFAYIARPLPRAHIKEYFYTSGKCSNPAVVFVTRKNRQVCANPEKKWVREYINSLEMS	-1.70
RANTES derivative: signature sequence SEQ ID NO: 26 fused to positions 10-68 of native RANTES (SEQ ID NO: 1) (ligand) QGPLSGWLQVCCFAYIARPLPRAHIKEYFYTSGKCSNPAVVFVTRKNRQVCANPEKKWVREYINSLEMS	-0.24
RANTES derivative: signature sequence SEQ ID NO: 54 fused to positions 10-68 of native RANTES (SEQ ID NO: 1) (ligand) QGPPGQWGQVCCFAYIARPLPRAHIKEYFYTSGKCSNPAVVFVTRKNRQVCANPEKKWVREYINSLEMS	-1.22
RANTES derivative: signature sequence SEQ ID NO: 3 fused to positions 10-68 of native RANTES (SEQ ID NO: 1) (ligand) QGPPLMWMQVCCFAYIARPLPRAHIKEYFYTSGKCSNPAVVFVTRKNRQVCANPEKKWVREYINSLEMS	-1.70
RANTES derivative: signature sequence SEQ ID NO: 30 fused to positions 10-68 of native RANTES (SEQ ID NO: 1) (ligand) QGPPLSWLQVCCFAYIARPLPRAHIKEYFYTSGKCSNPAVVFVTRKNRQVCANPEKKWVREYINSLEMS	-2.00
RANTES derivative: signature sequence SEQ ID NO: 63 fused to positions 10-68 of native RANTES (SEQ ID NO: 1) (ligand) QGPPLMSLSVCCFAYIARPLPRAHIKEYFYTSGKCSNPAVVFVTRKNRQVCANPEKKWVREYINSLEMS	-1.52
RANTES derivative: signature sequence SEQ ID NO: 33 fused to positions 10-68 of native RANTES (SEQ ID NO: 1) (ligand) QGPPMMAGLSCCFAYIARPLPRAHIKEYFYTSGKCSNPAVVFVTRKNRQVCANPEKKWVREYINSLEMS	-1.52
RANTES derivative: signature sequence SEQ ID NO: 22 fused to positions 10-68 of native RANTES (SEQ ID NO: 1) (ligand) QGPPLMSFQSCCFAYIARPLPRAHIKEYFYTSGKCSNPAVVFVTRKNRQVCANPEKKWVREYINSLEMS	-1.70
RANTES derivative: signature sequence SEQ ID NO: 44 fused to positions 10-68 of native RANTES (SEQ ID NO: 1) (ligand) QGPPLMSLAVCCFAYIARPLPRAHIKEYFYTSGKCSNPAVVFVTRKNRQVCANPEKKWVREYINSLEMS	-1.70
RANTES derivative: signature sequence SEQ ID NO: 42 fused to positions 10-68 of native RANTES (SEQ ID NO: 1) (ligand) QGPPMSAYQVCCFAYIARPLPRAHIKEYFYTSGKCSNPAVVFVTRKNRQVCANPEKKWVREYINSLEMS	-0.80
RANTES derivative: signature sequence SEQ ID NO: 69 fused to positions 10-68 of native RANTES (SEQ ID NO: 1) (ligand) QGPPLMSGQVCCFAYIARPLPRAHIKEYFYTSGKCSNPAVVFVTRKNRQVCANPEKKWVREYINSLEMS	-0.66
RANTES derivative: signature sequence SEQ ID NO: 58 fused to positions 10-68 of native RANTES (SEQ ID NO: 1) (ligand) QGPPLMTLQVCCFAYIARPLPRAHIKEYFYTSGKCSNPAVVFVTRKNRQVCANPEKKWVREYINSLEMS	-0.64
RANTES derivative: signature sequence SEQ ID NO: 59 fused to positions 10-68 of native RANTES (SEQ ID NO: 1) (ligand) QGPPGQWYQSCCFAYIARPLPRAHIKEYFYTSGKCSNPAVVFVTRKNRQVCANPEKKWVREYINSLEMS	-0.64
